Target: BRAF V600E (Homo sapiens, UniProt P15056, V600E)
Construct: expressed in transfected cells
Sequence (P15056 whole entry V600E): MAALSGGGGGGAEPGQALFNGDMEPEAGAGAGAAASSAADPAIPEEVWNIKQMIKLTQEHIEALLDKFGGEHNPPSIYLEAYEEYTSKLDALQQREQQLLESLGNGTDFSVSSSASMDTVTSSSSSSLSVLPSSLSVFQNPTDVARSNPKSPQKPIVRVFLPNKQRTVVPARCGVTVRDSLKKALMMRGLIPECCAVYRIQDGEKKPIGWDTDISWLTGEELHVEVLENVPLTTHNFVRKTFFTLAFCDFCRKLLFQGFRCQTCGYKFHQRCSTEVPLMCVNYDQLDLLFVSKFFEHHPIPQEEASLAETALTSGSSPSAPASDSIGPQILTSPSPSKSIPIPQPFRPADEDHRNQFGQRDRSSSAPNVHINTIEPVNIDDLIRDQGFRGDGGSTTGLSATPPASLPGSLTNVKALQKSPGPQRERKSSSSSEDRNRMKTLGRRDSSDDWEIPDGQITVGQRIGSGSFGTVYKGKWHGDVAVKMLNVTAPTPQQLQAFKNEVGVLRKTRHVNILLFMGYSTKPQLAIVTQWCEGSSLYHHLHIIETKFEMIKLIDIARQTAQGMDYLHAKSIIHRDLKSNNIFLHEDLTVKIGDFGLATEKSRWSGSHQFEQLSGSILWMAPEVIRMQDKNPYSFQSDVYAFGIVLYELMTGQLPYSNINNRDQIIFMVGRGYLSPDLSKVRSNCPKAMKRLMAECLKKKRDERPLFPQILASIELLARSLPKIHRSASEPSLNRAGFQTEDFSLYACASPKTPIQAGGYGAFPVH
Assay: Cellular assay of target protein degradation, T-Rex 293 cells stably transfected with HA-BRAF_V600E (HA immunofluorescence, high content imaging)
Type: cell-based
Conditions: maximum degradation observed, T-Rex 293 HA-BRAF V600E
REPORTED ENDPOINT: Dmax

(Q) Record request: Dmax value, item O=C1CCC(N2Cc3cc(CCCN4CC5(C4)CN(c4ncc(-c6cnc7[nH]cc(C(=O)c8c(F)ccc(NS(=O)(=O)N9CC[C@@H](F)C9)c8F)c7c6)cn4)C5)ccc3C2=O)C(=O)N1 (some centres unmarked) [Compound 147]
(A) 35 to 70%

(Q) # query: Dmax of entry COc1cc([C@@H](O)CCN2CCN(c3ccc(-c4cnc5[nH]cc(C(=O)c6c(F)ccc(NS(=O)(=O)N7CC[C@@H](F)C7)c6F)c5c4)cc3)CC2)cc2c1C(=O)N([C@H]1CCC(=O)NC1=O)C2 (stereo in doubt) [Compound 295]
(A) 35 to 70%

* * *

Target: BRAF G466V (Homo sapiens, UniProt P15056, G466V)
Construct: expressed in transfected cells
Sequence (P15056 whole entry G466V): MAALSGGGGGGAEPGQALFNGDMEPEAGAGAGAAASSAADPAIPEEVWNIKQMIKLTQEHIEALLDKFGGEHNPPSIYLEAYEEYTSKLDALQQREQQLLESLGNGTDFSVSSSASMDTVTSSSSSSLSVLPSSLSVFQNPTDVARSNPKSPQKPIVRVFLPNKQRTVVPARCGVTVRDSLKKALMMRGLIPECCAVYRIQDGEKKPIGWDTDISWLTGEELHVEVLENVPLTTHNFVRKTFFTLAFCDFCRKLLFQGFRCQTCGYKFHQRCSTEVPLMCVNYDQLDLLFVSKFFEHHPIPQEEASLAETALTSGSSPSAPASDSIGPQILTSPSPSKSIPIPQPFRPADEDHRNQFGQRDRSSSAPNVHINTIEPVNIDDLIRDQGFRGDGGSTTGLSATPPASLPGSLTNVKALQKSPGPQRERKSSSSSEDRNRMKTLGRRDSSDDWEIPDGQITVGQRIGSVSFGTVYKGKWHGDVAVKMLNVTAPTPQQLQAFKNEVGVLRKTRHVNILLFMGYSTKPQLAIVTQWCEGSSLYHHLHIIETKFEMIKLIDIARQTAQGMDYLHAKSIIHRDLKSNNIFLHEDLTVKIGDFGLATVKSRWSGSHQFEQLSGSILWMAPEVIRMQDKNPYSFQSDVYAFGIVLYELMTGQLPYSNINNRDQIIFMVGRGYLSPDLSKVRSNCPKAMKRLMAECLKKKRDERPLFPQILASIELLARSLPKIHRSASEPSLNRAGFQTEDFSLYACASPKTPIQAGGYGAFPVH
Experiment: Cellular assay of target protein degradation, T-Rex 293 cells stably transfected with HA-BRAF G466V (HA immunofluorescence, high content imaging)
Assay type: cell-based
Details: half maximal degradation, T-Rex 293 HA-BRAF G466V; read-out: BRaf G466V DC50
Kindly supply the reported DC50 values for the records listed here.

(Q) Requested field: DC50. Item: CN(CCN1CCN(c2ccc(-c3cnc4[nH]cc(C(=O)c5c(F)ccc(NS(=O)(=O)N6CC[C@@H](F)C6)c5F)c4c3)cc2)CC1)[C@H]1C[C@@H](Oc2ccc3c(c2)CN(C2CCC(=O)NC2=O)C3=O)C1 (some centres unmarked)
(A) 1 to 10 nM

(Q) Please look up its DC50: "O=C1CC[C@@H](N2Cc3cc(N4CCC(OC5CCN(c6ccc(-c7cnc8[nH]cc(C(=O)c9c(F)ccc(NS(=O)(=O)N%10CC[C@@H](F)C%10)c9F)c8c7)cc6)CC5)CC4)ccc3C2=O)C(=O)N1"
(A) 1 to 10 nM

* * *

Target: BRAF V600E (Homo sapiens, UniProt P15056, V600E)
Construct: expressed in transfected cells
Experiment: Cellular assay of target protein degradation, T-Rex 293 cells stably transfected with HA-BRAF_V600E (HA immunofluorescence, high content imaging)
Format: cell-based
Conditions: half maximal degradation, T-Rex 293 HA-BRAF V600E; read-out: BRaf V600E DC50
REPORTED ENDPOINT: DC50

(Q) DC50 for COc1cc(N2CC3(CN(CC4CCN(c5ncc(-c6cnc7[nH]cc(C(=O)c8c(F)ccc(NS(=O)(=O)N9CC[C@@H](F)C9)c8F)c7c6)cn5)CC4)C3)C2)cc2c1C(=O)N(C1CCC(=O)NC1=O)C2 (stereo partly drawn) ?
(A) 5 to 50 nM

(Q) Could you share which DC50 value was measured for "O=C1CC[C@H](N2Cc3cc(C4CCN(CC5CCN(c6ccc(-c7cnc8[nH]cc(C(=O)c9c(F)ccc(NS(=O)(=O)CC%10CC%10)c9F)c8c7)cc6)CC5)CC4)ccc3C2=O)C(=O)N1" ?
(A) 5 to 50 nM

(Q) Item "O=C1CC[C@H](N2Cc3cc([C@H](O)CCN4CCC(c5ccc(-c6cnc7[nH]cc(C(=O)c8c(F)ccc(NS(=O)(=O)N9CC[C@@H](F)C9)c8F)c7c6)cc5)CC4)ccc3C2=O)C(=O)N1" has what recorded DC50?
(A) 5 to 50 nM
